Each recorded value in this set is attributed to the supplement of paper PMC11061612.

- Test system: SNU-5 (Gastric Carcinoma);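 also: after 72 h of two-drug dosing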
- PROCEDURE_DETAILS: Bliss excess, mean over the matrix (fraction); higher = more synergy
RECORDED_ENDPOINT: Bliss excess

Provide measured Bliss excess value, entry: NC1(C(=O)N[C@@H](CCO)c2ccc(Cl)cc2)CCN(c2ncnc3[nH]ccc23)CC1 [Capivasertib] + Cn1cnc2c(F)c(Nc3ccc(Br)cc3Cl)c(C(=O)NOCCO)cc21 [Selumetinib] (first compound max 10 µM, 7x7, partner max 10 µM)
0.0345

Provide measured Bliss excess value, entry: Cc1cc2ncnn2cc1Nc1ncc2c(n1)n(C1CCOCC1)c(=O)n2C [AZD7648] + C=CCn1c(=O)c2cnc(Nc3ccc(N4CCN(C)CC4)cc3)nc2n1-c1cccc(C(C)(C)O)n1 [AZD1775] (first compound max 10 µM, partner max 1 µM)
0.0073

Provide measured Bliss excess value, entry: CN(CCO)CC[C@H](CSc1ccccc1)Nc1ccc(S(=O)(=O)NC(=O)c2ccc(N3CCC([C@@H](O)c4ccccc4-c4ccc(Cl)cc4)CC3)cc2)cc1S(=O)(=O)C(F)(F)F [AZD4320] + Cc1cc2ncnn2cc1Nc1ncc2c(n1)n(C1CCOCC1)c(=O)n2C [AZD7648] (first compound max 1 µM, 7x7, partner max 10 µM)
-0.0151

Provide measured Bliss excess value, entry: CC1(C)CCC(CN2CCN(c3ccc(C(=O)NS(=O)(=O)c4ccc(NCC5CCOCC5)c([N+](=O)[O-])c4)c(Oc4cnc5[nH]ccc5c4)c3)CC2)=C(c2ccc(Cl)cc2)C1 [Venetoclax] + Cn1cnc2c(F)c(Nc3ccc(Br)cc3Cl)c(C(=O)NOCCO)cc21 [Selumetinib] (first compound max 1 µM, 7x7, partner max 3 µM)
-0.0192

Provide measured Bliss excess value, entry: COc1nnc2ccc(N3CCC(c4ccc(OCCN5CCN(C)C(=O)[C@H]5C)cc4)CC3)nn12 [AZD5153] + C=CCn1c(=O)c2cnc(Nc3ccc(N4CCN(C)CC4)cc3)nc2n1-c1cccc(C(C)(C)O)n1 [AZD1775] (first compound max 1 µM, partner max 1 µM)
-0.0759

Provide measured Bliss excess value, entry: C=CCn1c(=O)c2cnc(Nc3ccc(N4CCN(C)CC4)cc3)nc2n1-c1cccc(C(C)(C)O)n1 [AZD1775] + O=C(c1cc(Cc2n[nH]c(=O)c3ccccc23)ccc1F)N1CCN(C(=O)C2CC2)CC1 [Olaparib] (first compound max 1 µM, partner max 10 µM)
-0.0833

Provide measured Bliss excess value, entry: COc1cccc(OCCCN)c1-c1cc(Nc2cnc(C#N)cn2)n[nH]1 [Prexasertib] + C=CCn1c(=O)c2cnc(Nc3ccc(N4CCN(C)CC4)cc3)nc2n1-c1cccc(C(C)(C)O)n1 [AZD1775] (first compound max 1 µM, partner max 1 µM)
0.0491
